Listing of entries alongside the reported TGI.
System: SF-539 CNS
Assay: NCI tumour cell line growth inhibition, 384-well format
REPORTED_METRIC: TGI

[
  {
    "COMPOUND": "C[C@@H]1CN(C(=O)c2ccc(NC(=O)c3cc(O[C@H](C)c4c(Cl)ccc(F)c4Cl)c(N)nn3)cc2)C[C@H](C)N1",
    "RESULT": "3.99 µM"
  },
  {
    "COMPOUND": "Cn1cncc1[C@@](N)(c1ccc(Cl)cc1)c1ccc2c(c1)c(-c1cccc(Cl)c1)cc(=O)n2C",
    "RESULT": "4.33 µM"
  },
  {
    "COMPOUND": "CCCN(CCC)C(=O)C1=Cc2ccc(-c3ccc(C(=O)N4CCCC4)cc3)cc2N=C(N)C1",
    "RESULT": "16.6 µM"
  },
  {
    "COMPOUND": "O=C1CC(c2ccc(N3CCOCC3)cc2)(c2ccsc2)NC(=O)C1Sc1ccccc1Cl (centres undefined)",
    "RESULT": "> 100 µM"
  }
]

Cited source for all entries: PubChem BioAssay (NCI)
